B1: WW domain-binding protein 4, residues 8 to 43; numbered along this chain, O75554 (parent)
chain: QPKKFCDYCKCWIADNRPSVEFHERGKNHKENVAKR

Variants of: B1
Experiment: abundance fitness (aPCA) (normalised: wild type 0, dead -1); higher = more abundant; growth selection in yeast, the domain comes from the species named
Conditions: Homo sapiens
readout kind: abundance fitness

mutations | readout kind | experimental value
I13E | abundance fitness | -0.226
H23S | abundance fitness | -0.549
K35N | abundance fitness | -0.085
E31H | abundance fitness | -0.29
S19A | abundance fitness | -0.058
K35Q | abundance fitness | -0.093
I13R | abundance fitness | -0.532
N32S | abundance fitness | -0.086
I13N | abundance fitness | -0.308
H29E | abundance fitness | -0.325
S19D | abundance fitness | -0.13
A34Q | abundance fitness | -0.289
A14C | abundance fitness | -0.169
R25S | abundance fitness | -0.037
F22P | abundance fitness | -0.061
D7S | abundance fitness | -0.131
A34F | abundance fitness | -0.385
E24Y | abundance fitness | -0.183
C6E | abundance fitness | -0.546
P18H | abundance fitness | -0.124
H23K | abundance fitness | -0.44
G26Q | abundance fitness | 0.038
G26W | abundance fitness | -0.277
C9W | abundance fitness | -1.2
C6W | abundance fitness | -1
A34E | abundance fitness | -0.001
Y8V | abundance fitness | -0.249
K30G | abundance fitness | -0.019
V33Q | abundance fitness | -0.195
E21V | abundance fitness | -0.289
H23D | abundance fitness | -0.387
W12Q | abundance fitness | 0.077
F22G | abundance fitness | 0.111
A14G | abundance fitness | -0.286
D7P | abundance fitness | -0.529
F22N | abundance fitness | -0.035
C9D | abundance fitness | -0.541
A34K | abundance fitness | -0.098
Q1T | abundance fitness | -0.509
N28T | abundance fitness | -0.102
R25M | abundance fitness | 0.079
V20F | abundance fitness | -0.442
N16M | abundance fitness | 0.024
V33P | abundance fitness | -0.315
D15M | abundance fitness | -0.128
P2V | abundance fitness | 0.06
Y8D | abundance fitness | 0.129
P2K | abundance fitness | 0.294
K35T | abundance fitness | -0.043
R36M | abundance fitness | -0.267
Y8G | abundance fitness | -0.224
F22Y | abundance fitness | -0.224
P2Y | abundance fitness | -0.176
R25Y | abundance fitness | -0.357
A14K | abundance fitness | -0.251
P18E | abundance fitness | -0.048
D7L | abundance fitness | -0.209
G26S | abundance fitness | 0.04
K10F | abundance fitness | -0.409
N28E | abundance fitness | -0.015
P2T | abundance fitness | 0.109
P2M | abundance fitness | 0.615
N16L | abundance fitness | -0.175
F22Q | abundance fitness | 0.238
D7K | abundance fitness | -0.272
E21I | abundance fitness | -0.71
N28Q | abundance fitness | -0.087
F5E | abundance fitness | -0.356
R25C | abundance fitness | -0.133
I13Q | abundance fitness | -0.529
Q1W | abundance fitness | -1.47
F22A | abundance fitness | 0.09
K3G | abundance fitness | -0.051
H23G | abundance fitness | -0.689
V33E | abundance fitness | 0.022
E31C | abundance fitness | -0.302
I13Y | abundance fitness | 0.334
W12G | abundance fitness | -0.331
P18M | abundance fitness | -0.002
K27R | abundance fitness | -0.08
G26C | abundance fitness | -0.197
Q1L | abundance fitness | -0.654
N28M | abundance fitness | 0.326
Q1I | abundance fitness | 0.404
K35C | abundance fitness | -0.951
F22V | abundance fitness | 0.085
S19R | abundance fitness | -0.574
D15Q | abundance fitness | -0.262
R25W | abundance fitness | -0.331
H29V | abundance fitness | -0.349
Q1C | abundance fitness | -1.36

Values from the Human Domainome abundance scans (Beltran et al. 2025)
